TESTED_SYSTEM: CDK9/cyclinT1 (Homo sapiens)
Sequence (P50750 whole entry): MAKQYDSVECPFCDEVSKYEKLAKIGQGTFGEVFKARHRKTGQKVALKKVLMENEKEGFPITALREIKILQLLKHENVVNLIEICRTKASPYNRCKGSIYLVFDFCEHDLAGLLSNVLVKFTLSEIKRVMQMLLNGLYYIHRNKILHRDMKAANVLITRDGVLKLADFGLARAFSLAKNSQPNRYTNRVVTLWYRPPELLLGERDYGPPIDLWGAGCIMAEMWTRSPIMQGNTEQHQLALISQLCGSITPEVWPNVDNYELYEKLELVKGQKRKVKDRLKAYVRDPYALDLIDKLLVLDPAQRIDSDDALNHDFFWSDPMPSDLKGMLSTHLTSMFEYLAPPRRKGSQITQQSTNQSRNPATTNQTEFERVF
Sequence (O60563 whole entry partner): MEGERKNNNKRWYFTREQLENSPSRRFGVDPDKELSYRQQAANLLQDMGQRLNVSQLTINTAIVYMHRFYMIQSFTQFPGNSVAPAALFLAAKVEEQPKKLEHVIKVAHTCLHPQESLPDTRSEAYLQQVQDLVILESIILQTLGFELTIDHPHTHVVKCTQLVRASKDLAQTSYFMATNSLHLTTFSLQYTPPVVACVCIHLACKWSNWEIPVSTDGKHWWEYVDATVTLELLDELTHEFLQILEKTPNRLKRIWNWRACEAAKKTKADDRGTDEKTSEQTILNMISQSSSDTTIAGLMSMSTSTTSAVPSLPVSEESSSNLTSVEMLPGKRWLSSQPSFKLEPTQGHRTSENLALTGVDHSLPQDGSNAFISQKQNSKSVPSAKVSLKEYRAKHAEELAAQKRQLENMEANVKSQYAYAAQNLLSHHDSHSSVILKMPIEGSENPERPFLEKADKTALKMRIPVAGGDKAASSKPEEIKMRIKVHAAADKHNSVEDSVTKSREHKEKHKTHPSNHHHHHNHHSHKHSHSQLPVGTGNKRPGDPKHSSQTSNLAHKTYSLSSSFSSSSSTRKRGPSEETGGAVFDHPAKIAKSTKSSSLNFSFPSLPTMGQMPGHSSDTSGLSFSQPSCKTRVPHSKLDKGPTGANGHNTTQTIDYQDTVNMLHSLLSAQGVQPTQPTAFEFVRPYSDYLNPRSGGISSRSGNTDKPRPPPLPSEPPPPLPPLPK
RUN_DESCRIPTION: Assay for inhibition of CDK9/CyclinT1 kinase activity (radiolabel filter binding)
MEASURED_ENDPOINT: IC50 (µM)
// units = µM; emit number, no label

Form field IC50, entry `Cc1cc(NC2CCN(C(=O)O[C@@H]3CCN(C(=O)/C=C/CN(C)C)C3)CC2)n2ncc(C(C)C)c2n1` : 2.45

Form field IC50, entry `Cc1cc(NC2CCN(C(=O)O[C@H]3CCN(C(=O)/C=C/CN(C)C)C3)CC2)n2ncc(C(C)C)c2n1` : 5.9

---

System: NIHOVCAR3
RUN_DESCRIPTION: Biomarker study proliferation (CellTiter-Glo)
Assay type: cell-based
CONDITION_CONTEXT: Homo sapiens, OVCAR-3, 168 h, read-out: Anti-proliferation effect IC50
Protocol: Cancer cell lines are profiled to evaluate the anti-proliferative activity of a test compound in-vitro. […] After 15 minutes, luminescence is read using a plate reader. Data is analyzed in Excel and graphed in GraphPad Prism. Statistical analysis and p value is calculated using Mann-Whitney nonparameteric t tests using GraphPad Prism. […]
MEASURED_ENDPOINT: IC50 (nM)
// units = nM; emit number, no label

Form field IC50, entry Cc1cc(NC2CCN(C(=O)O[C@H]3CCN(C(=O)/C=C/CN(C)C)C3)CC2)n2ncc(C(C)C)c2n1 [Example 1] : 40

---

TESTED_SYSTEM: CDK7/CyclinH/Mat1 (Homo sapiens)
Sequence (P50613 whole entry): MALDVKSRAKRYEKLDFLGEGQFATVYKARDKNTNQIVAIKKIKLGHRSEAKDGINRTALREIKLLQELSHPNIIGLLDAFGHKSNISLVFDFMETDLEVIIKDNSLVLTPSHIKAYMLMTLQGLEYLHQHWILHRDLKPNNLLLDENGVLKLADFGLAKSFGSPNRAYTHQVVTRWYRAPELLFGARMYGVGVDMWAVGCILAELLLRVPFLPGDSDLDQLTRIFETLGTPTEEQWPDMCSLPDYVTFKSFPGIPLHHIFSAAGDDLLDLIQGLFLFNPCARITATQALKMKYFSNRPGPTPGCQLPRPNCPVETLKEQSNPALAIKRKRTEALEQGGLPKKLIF
Sequence (P51946 whole entry partner): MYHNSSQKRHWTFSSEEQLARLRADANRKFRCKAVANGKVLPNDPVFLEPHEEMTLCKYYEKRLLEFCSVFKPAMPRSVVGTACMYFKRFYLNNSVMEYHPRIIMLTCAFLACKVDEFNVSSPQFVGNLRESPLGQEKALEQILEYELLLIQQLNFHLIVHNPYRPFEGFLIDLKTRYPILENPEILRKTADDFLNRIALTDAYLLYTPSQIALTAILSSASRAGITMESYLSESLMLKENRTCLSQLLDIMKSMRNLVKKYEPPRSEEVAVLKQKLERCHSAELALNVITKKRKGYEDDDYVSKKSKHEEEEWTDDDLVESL
Sequence (P51948 whole entry partner): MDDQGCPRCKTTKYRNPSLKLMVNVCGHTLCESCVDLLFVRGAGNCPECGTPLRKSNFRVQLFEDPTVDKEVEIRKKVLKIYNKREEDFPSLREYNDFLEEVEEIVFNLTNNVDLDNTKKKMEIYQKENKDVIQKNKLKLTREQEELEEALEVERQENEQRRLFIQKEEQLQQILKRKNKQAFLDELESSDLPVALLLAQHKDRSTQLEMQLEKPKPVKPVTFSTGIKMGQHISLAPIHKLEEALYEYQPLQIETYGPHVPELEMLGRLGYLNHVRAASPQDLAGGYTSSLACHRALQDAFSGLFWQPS
RUN_DESCRIPTION: Biochemical assay for inhibition of CDK7/CyclinH/MAT1 (radiolabel filter binding)
CONDITION_CONTEXT: IC50 in CDK7, 3 hours of preincubation of CDK7 enzyme
Kindly state IC50 for each of the entries shown.
// units = nM; emit number, no label

Form field IC50, entry `Cc1cc(NC2CCN(C(=O)O[C@@H]3CCN(C(=O)/C=C/CN(C)C)C3)CC2)n2ncc(C(C)C)c2n1` : 5.06

Form field IC50, entry `Cc1cc(NC2CCN(C(=O)O[C@H]3CCN(C(=O)/C=C/CN(C)C)C3)CC2)n2ncc(C(C)C)c2n1` : 2.37

---

System: KYSE520
RUN_DESCRIPTION: Biomarker study proliferation (CellTiter-Glo)
Type: cell-based
CONDITION_CONTEXT: Homo sapiens, KYSE-520, 168 h, read-out: Anti-proliferation effect IC50
MEASURED_ENDPOINT: IC50

Form field IC50, entry Cc1cc(NC2CCN(C(=O)O[C@H]3CCN(C(=O)/C=C/CN(C)C)C3)CC2)n2ncc(C(C)C)c2n1 [Example 1] : > 10 µM

---

System: HT
RUN_DESCRIPTION: Biomarker study proliferation (CellTiter-Glo)
Assay type: cell-based
CONDITION_CONTEXT: Homo sapiens, 168 h, read-out: Anti-proliferation effect IC50
MEASURED_ENDPOINT: IC50 (nM)
// units = nM; emit number, no label

Form field IC50, entry Cc1cc(NC2CCN(C(=O)O[C@H]3CCN(C(=O)/C=C/CN(C)C)C3)CC2)n2ncc(C(C)C)c2n1 [Example 1] : 131

---

System: HCC2218
RUN_DESCRIPTION: Biomarker study proliferation (CellTiter-Glo)
Format: cell-based
CONDITION_CONTEXT: Homo sapiens, HCC2218, 168 h, read-out: Anti-proliferation effect IC50
MEASURED_ENDPOINT: IC50 (µM)
// units = µM; emit number, no label

Form field IC50, entry Cc1cc(NC2CCN(C(=O)O[C@H]3CCN(C(=O)/C=C/CN(C)C)C3)CC2)n2ncc(C(C)C)c2n1 [Example 1] : 0.56
